Listed compounds paired with reported MRGPRX4 activation, Average
tgt: MRGPRX4 (Homo sapiens, UniProt Q96LA9)
Sequence (Q96LA9 whole entry): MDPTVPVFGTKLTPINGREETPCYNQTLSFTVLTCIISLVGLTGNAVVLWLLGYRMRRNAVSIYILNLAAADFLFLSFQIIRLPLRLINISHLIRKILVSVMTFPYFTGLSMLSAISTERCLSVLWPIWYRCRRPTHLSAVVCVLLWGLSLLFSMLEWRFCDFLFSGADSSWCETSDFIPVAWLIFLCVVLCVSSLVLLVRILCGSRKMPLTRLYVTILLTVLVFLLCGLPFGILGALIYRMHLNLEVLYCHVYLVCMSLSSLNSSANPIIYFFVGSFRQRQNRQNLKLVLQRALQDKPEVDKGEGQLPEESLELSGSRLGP
assay-summary: MRGPRX4 activation, Fluo-8 Ca2+ FLIPR assay in HEK293T cells stably expressing MRGPRX4
Type: cell-based
Parameters: key: fluorescence change dF/F0
measurement-parameters: E3-9, Conc. (Log[M]) −4.5
Give only the figure.

Solved cases (3 shown):
compound | tgt | MRGPRX4 activation, Average
CC[C@H]1[C@@H](O)[C@@H]2[C@H](CC[C@]3(C)[C@@H]([C@H](C)COC(=O)NS(=O)(=O)c4ccc(C(C)(C)CF)cc4)CC[C@@H]23)[C@@]2(C)CCCC[C@@H]12 | MRGPRX4 (Homo sapiens, UniProt Q96LA9) | 0.003
CC[C@H]1[C@@H](O)[C@@H]2[C@H](CC[C@]3(C)[C@@H]([C@H](C)CCNC(=O)NS(=O)(=O)c4cc(F)ccc4F)CC[C@@H]23)[C@@]2(C)CC[C@H](F)C[C@@H]12 | MRGPRX4 (Homo sapiens, UniProt Q96LA9) | 0.001
CC[C@H]1[C@@H](O)[C@@H]2[C@H](CC[C@]3(C)[C@@H]([C@H](C)CCNC(=S)NS(=O)(=O)c4ccc(C(C)(C)CF)cc4)CC[C@@H]23)[C@@]2(C)CCC(F)(F)C[C@@H]12 | MRGPRX4 (Homo sapiens, UniProt Q96LA9) | 0.013

Read the next record carefully.
(Q) // lookup MRGPRX4 activation, Average | system=MRGPRX4 (Homo sapiens, UniProt Q96LA9) | key= CC[C@H]1[C@@H](O)[C@@H]2[C@H](CC[C@]3(C)[C@@H]([C@H](C)CCNC(=O)NS(=O)(=O)c4ccc(C(C)(C)CF)cc4)CC[C@@H]23)[C@@]2(C)CCC(F)(F)C[C@@H]12
(A) 0.016

###

tgt: MRGPRX4 (Homo sapiens)
assay-summary: MRGPRX4 activation, Fluo-8 Ca2+ FLIPR assay in HEK293T cells stably expressing MRGPRX4
Assay type: cell-based
Parameters: key: fluorescence change dF/F0
measurement-parameters: E3-9, Conc. (Log[M]) −7.3
Recorded MRGPRX4 activation, Average, one value per entry.
// return a plain number; no unit text

(Q) // lookup MRGPRX4 activation, Average for CC[C@H]1[C@@H](O)[C@@H]2[C@H](CC[C@]3(C)[C@@H]([C@H](C)CCNC(=O)NS(=O)(=O)c4cccs4)CC[C@@H]23)[C@@]2(C)CCC(F)(F)C[C@@H]12 [10-4]
(A) 0.010

(Q) Item CC[C@H]1[C@@H](O)[C@@H]2[C@H](CC[C@]3(C)[C@@H]([C@H](C)CCNC(=O)NS(=O)(=O)c4ccc(C(C)(C)CF)cc4)CC[C@@H]23)[C@@]2(C)CC[C@H](F)C[C@@H]12 [9-1] has what recorded MRGPRX4 activation, Average?
(A) 0.016

(Q) Look at this compound and give its reported MRGPRX4 activation, Average. [2H]C1CC[C@@]2(C)[C@@H](C1)[C@@H](CC)[C@@H](O)[C@@H]1[C@@H]2CC[C@]2(C)[C@@H]([C@H](C)CCC(=O)O)CC[C@@H]12 (some centres unmarked) [13-1]
(A) 0.013

(Q) What does the data say about its MRGPRX4 activation, Average? Entry: CC[C@H]1[C@@H](O)[C@@H]2[C@H](CC[C@]3(C)[C@@H]([C@H](C)CCNC(=O)NS(=O)(=O)c4ccc5c(c4)CCC(C)(C)O5)CC[C@@H]23)[C@@]2(C)CCCC[C@@H]12 [5-29]
(A) 0.016

(Q) Quick one: MRGPRX4 activation, Average of CC[C@H]1[C@@H](O)[C@@H]2[C@H](CC[C@]3(C)[C@@H]([C@H](C)CCNC(=O)C(=O)NS(=O)(=O)c4ccc(C(C)(C)CF)cc4)CC[C@@H]23)[C@@]2(C)CCCC[C@@H]12 [8-3] ?
(A) 0.013
